Test system: Shigella flexneri
Assay: growth AUC normalised to DMSO control (fraction of control); higher = less growth inhibition, active = hit call of the paper
Settings: 20 µM
# valid calls are active, inactive; nothing else

# Compound, Group label
measured = [
    ("CCc1nc(N)nc(N)c1-c1ccc(Cl)cc1 [Pyrimethamine]", "active"),
]

As a next step, examine the compound that follows.
Query block: Test call for this compound, please: Cc1c(C)c2c(c(C)c1O)CCC(C)(COc1ccc(CC3SC(=O)NC3=O)cc1)O2 (configuration not stated) [Troglitazone]
Result block: inactive

---

System: S. enterica typhimurium WT
Experiment: growth AUC normalised to DMSO control (median) (fraction of control); higher = less growth inhibition, active = hit call of the paper
Conditions: 20 µM
Structures can show the parent of a compound that is named as a salt.
Measured metric: growth AUC normalised to DMSO control
Just the number, please.

Some entries whose results are on file:
# Compound, Measured metric, Numeric result
measured = [
    ("Nc1ccc(C(=O)NCC(=O)O)cc1 [Aminohippuric acid]", "growth AUC normalised to DMSO control", 1.01),
    ("CCCCC(C)(O)C/C=C/[C@H]1[C@H](O)CC(=O)[C@@H]1CCCCCCC(=O)OC (mixture of isomers) [Misoprostol]", "growth AUC normalised to DMSO control", 1.01),
]

Query block: I would be grateful if you could share the reported growth AUC normalised to DMSO control for CC(=O)N(CC(O)CO)c1c(I)c(C(=O)NCC(O)CO)c(I)c(C(=O)NCC(O)CO)c1I (centres undefined) [Iohexol] .
Result block: 0.999

Query block: Proceed to CC1(C)O[C@@H]2C[C@H]3[C@@H]4C[C@H](F)C5=CC(=O)C=C[C@]5(C)[C@@]4(F)[C@@H](O)C[C@]3(C)[C@]2(C(=O)CO)O1 [Fluocinolone acetonide]
Result block: 1

Query block: Proceed to Cc1[nH]c(=O)c(C#N)cc1-c1ccncc1 [Milrinone]
Result block: 0.987

Query block: Proceed to OCCN1C[C@H](O)[C@@H](O)[C@H](O)[C@H]1CO [Miglitol]
Result block: 1.01

Query block: Proceed to O=C(O)c1cc(=O)c2ccccc2o1 [Chromocarb]
Result block: 0.998

Query block: Proceed to CC(CN1c2ccccc2Sc2ccccc21)N(C)C (centres undefined) [Promethazine hydrochloride]
Result block: 1

Query block: Proceed to OCCN1CCN(CCCN2c3ccccc3Sc3ccc(C(F)(F)F)cc32)CC1 [Fluphenazine dihydrochloride]
Result block: 0.993

Query block: Proceed to Cc1ccnc2c1NC(=O)c1cccnc1N2C1CC1 [Nevirapine]
Result block: 1

Query block: Proceed to CN1CCN(C2Cc3ccccc3Sc3ccc(Cl)cc32)CC1 (centres undefined) [Octoclothepin maleate salt]
Result block: 0.981

---

Test system: P. vulgatus WT
Assay: growth AUC normalised to DMSO control (median) (fraction of control); higher = less growth inhibition, active = hit call of the paper
Settings: 20 µM
Counter-ions that a name gives are not always drawn.
# valid calls are t = active, f = inactive; nothing else

Solved cases (6 shown):
# Molecule, Group label
records = [
    ("CC[C@H](C)[C@H](N)C1=N[C@H](C(=O)N[C@@H](CC(C)C)C(=O)N[C@H](CCC(=O)O)C(=O)N[C@H](C(=O)N[C@H]2CCCCNC(=O)[C@H](CC(N)=O)NC(=O)[C@@H](CC(=O)O)NC(=O)[C@H](Cc3cnc[nH]3)NC(=O)[C@@H](Cc3ccccc3)NC(=O)[C@H]([C@@H](C)CC)NC(=O)[C@@H](CCCN)NC2=O)[C@@H](C)CC)CS1 [Bacitracin]", "f"),
    ("CCn1nc(C(=O)O)c(=O)c2cc3c(cc21)OCO3 [Cinoxacin]", "f"),
    ("CC[C@@H](CO)NCCN[C@@H](CC)CO [Ethambutol dihydrochloride]", "f"),
    ("Oc1c(Cl)cc(Cl)c(Cl)c1Cc1c(O)c(Cl)cc(Cl)c1Cl [Hexachlorophene]", "t"),
    ("N=C(N)NCCN1CCCCCCC1 [Guanethidine sulfate]", "f"),
    ("CCCNC(=O)NS(=O)(=O)c1ccc(Cl)cc1 [Chlorpropamide]", "f"),
]

Query block: Test call for this molecule, please: CCCN[C@H]1CCc2nc(N)sc2C1 [Pramipexole dihydrochloride]
Result block: f

---

The molecules listed here are annotated with their growth AUC normalised to DMSO control.
System: Vibrio cholerae
Experiment: growth AUC normalised to DMSO control (fraction of control); higher = less growth inhibition, active = hit call of the paper
Conditions: 20 µM
Counter-ions that a name gives are not always drawn.
Just the number, please.

Some entries whose results are on file:
# Molecule, Numeric result
measured = [
    ("CN1CCN2c3ccccc3Cc3ccccc3C2C1 (centres undefined) [Mianserine hydrochloride]", 0.868),
    ("CCn1cc(C(=O)O)c(=O)c2cc(F)c(N3CCNC(C)C3)c(F)c21 (centres undefined) [Lomefloxacin hydrochloride]", 0.0243),
    ("COC(=O)Nc1nc2cc(C(=O)c3ccccc3)ccc2[nH]1", 0.951),
    ("CC[N+](CC)(CC(=O)Nc1c(C)cccc1C)Cc1ccccc1 [Denatonium benzoate]", 1.03),
    ("C[C@H](CS)C(=O)N1CCC[C@H]1C(=O)O", 0.995),
    ("Cc1c(N(C)C)c(=O)n(-c2ccccc2)n1C", 1.05),
    ("CN1CCCC(n2nc(Cc3ccc(Cl)cc3)c3ccccc3c2=O)CC1 (centres undefined) [Azelastine hydrochloride]", 0.932),
    ("COCCOC(=O)C1=C(C)NC(C)=C(C(=O)OC/C=C/c2ccccc2)C1c1cccc([N+](=O)[O-])c1 (centres undefined)", 1.03),
]

Turning now to a further molecule:
Query block: I would be grateful if you could share the reported growth AUC normalised to DMSO control for CN1CCN(C2=Nc3cc(Cl)ccc3Nc3ccccc32)CC1 .
Result block: 0.969

---

Test system: S. enterica typhimurium tolC KO
Assay: growth AUC normalised to DMSO control (median) (fraction of control); higher = less growth inhibition, active = hit call of the paper
Conditions: 20 µM
Counter-ions that a name gives are not always drawn.
Measured metric: growth AUC normalised to DMSO control
Just the number, please.

# Compound, growth AUC normalised to DMSO control
measured = [
    ("Nc1nc2ccc(OC(F)(F)F)cc2s1 [Riluzole hydrochloride]", 0.976),
]

Query block: I would be grateful if you could share the reported growth AUC normalised to DMSO control for COc1cc(Nc2c(C#N)cnc3cc(OCCCN4CCN(C)CC4)c(OC)cc23)c(Cl)cc1Cl .
Result block: 0.98

Query block: Proceed to Clc1cc(Cl)c(OCC#CI)cc1Cl
Result block: 0.993

Query block: Proceed to CCN1CCCC1CNC(=O)c1cc(S(N)(=O)=O)ccc1OC (centres undefined) [Sulpiride]
Result block: 0.999

Query block: Proceed to COc1ccccc1OCC(O)CN1CCN(CC(=O)Nc2c(C)cccc2C)CC1 (centres undefined)
Result block: 0.998

Query block: Proceed to CC(C)NCC(O)c1cc(O)cc(O)c1 (centres undefined) [Metaproterenol sulfate]
Result block: 0.997

Query block: Proceed to CC(C)NC[C@H](O)COc1cccc2ccccc12 [(S)-(-)-Propranolol hydrochloride]
Result block: 0.986

Query block: Proceed to COC(=O)C1=C(C)NC(C)=C(C(=O)OCCN(C)Cc2ccccc2)C1c1cccc([N+](=O)[O-])c1 (centres undefined) [Nicardipine hydrochloride]
Result block: 0.901

Query block: Proceed to CC(=O)Nc1ccccc1 [Acetanilide]
Result block: 1.01

---

Test system: Vibrio cholerae
Assay: growth AUC normalised to DMSO control (fraction of control); higher = less growth inhibition, active = hit call of the paper
Conditions: 20 µM
Structures can show the parent of a compound that is named as a salt.
Measured metric: growth AUC normalised to DMSO control
Just the number, please.

# Molecule, growth AUC normalised to DMSO control
rows = [
    ("C[C@]12CC[C@@H]3c4ccc(O)cc4CC[C@H]3[C@@H]1CCC2=O", 0.0258),
]

Query block: I would be grateful if you could share the reported growth AUC normalised to DMSO control for CCC(Cc1c(I)cc(I)c(N)c1I)C(=O)O (centres undefined) .
Result block: 1.01

Query block: Proceed to CC[C@@H]1C(=O)OC[C@@H]1Cc1cncn1C [Pilocarpine nitrate]
Result block: 0.998

Query block: Proceed to NS(=O)(=O)c1cc2c(cc1Cl)NC(C(Cl)Cl)NS2(=O)=O (centres undefined) [Trichlormethiazide]
Result block: 0.957

Query block: Proceed to CNC1(C)C2CCC(C2)C1(C)C (centres undefined) [Mecamylamine hydrochloride]
Result block: 0.976

Query block: Proceed to Cn1c(=O)c2c(ncn2CC2OCCO2)n(C)c1=O
Result block: 1.01

Query block: Proceed to C/C(=C(\CCOP(=O)(O)O)SC(=O)c1ccccc1)N(C=O)Cc1cnc(C)nc1N
Result block: 0.996

Query block: Proceed to CCN(CC)CCOC(=O)C1(C2CCCCC2)CCCCC1 [Dicyclomine hydrochloride]
Result block: 0.889

Query block: Proceed to CC(=O)SCC(Cc1ccccc1)C(=O)NCC(=O)OCc1ccccc1 (centres undefined)
Result block: 1
